# Tested on: MCF7
# assay_explanation: NCI tumour cell line growth inhibition, 48 h
The source made the active and inactive calls. Rule as the data show it: active = GI50 up to about 1.1 µM and inactive = higher.
Below, each entry is listed with its recorded GI50.

## Input Any idea what GI50 was measured for "CSc1ccc(-c2cc(-c3nc4ccccc4[nH]3)nc3[nH]c(-c4nc5ccccc5[nH]4)cc(=O)c23)cc1" ?
## Output 34 µM (inactive)

## Input Any idea what GI50 was measured for "O=c1ccc2cc(O)c(O)cc2o1" ?
## Output > 100 µM (inactive)

## Input Any idea what GI50 was measured for "Clc1cc(Br)c2c3c(c(Br)cc(Cl)c13)C(Br)=C2Br" ?
## Output 34.8 µM (inactive)

## Input Any idea what GI50 was measured for "COc1ccc([C@H]2CC(=O)C[C@H](c3ccc(OC)cc3OC)C23C(=O)c2ccccc2C3=O)c(OC)c1" ?
## Output > 100 µM (inactive)

## Input Any idea what GI50 was measured for COc1ccc(N2C(=O)C3c4[nH]c5ccccc5c4C4CCC(C(C)(C)C)CC4C3C2=O)c(C)c1 (stereo unspecified) ?
## Output > 100 µM (inactive)

###

# Test system: 786-0
# assay_explanation: NCI tumour cell line growth inhibition, 48 h
Calls of active or inactive are those of the source. No stated cut-off is given here; in the data, active = GI50 up to about 1.1 µM and inactive = higher.
API: response.call in Y = active, N = inactive

Example results:
C[P+](C)(C)c1ccccc1	N
Nc1nc(Cl)c2ncn(Cc3ccc(CCl)cc3)c2n1	N
O=c1ccc2cc(O)c(O)cc2o1	N
OC1OC2COC(c3ccccc3)OC2C(O)C1O (stereo not given)	N
CN1C(c2ccccc2)CC(C)(O)CC1c1ccccc1 (stereo not given)	N
C=CCCC(=O)CC(O)(C(F)(F)F)C(F)(F)F	N

## Input Hi, do you know how "CCOC(=O)C(C)(C)Oc1ccc(/C=C/C(=O)c2ccc(Cl)cc2)cc1" came out in this test?
## Output N

## Input Hi, do you know how "COc1ccccc1NC(=S)Nc1cccc(C)n1" came out in this test?
## Output N

## Input Hi, do you know how COC(=O)C(Cc1ccccc1)NP(=O)(O)OCC1OC(n2cc(F)c(=O)[nH]c2=O)CC1O (stereo not given) came out in this test?
## Output N

## Input Hi, do you know how O=C(c1ccc(O)cc1O)C1C(c2ccc(O)cc2)OC(c2ccc(O)cc2)C1C(=O)c1ccc(O)cc1O (stereo not given) came out in this test?
## Output N

## Input Hi, do you know how "Cc1ccc(/C=C2\CCC/C(=C\c3ccc(O)c(CN4CCCCC4)c3)C2=O)cc1" came out in this test?
## Output N

## Input Hi, do you know how COc1ccc(C2Oc3cc(OC)c(O)cc3[C@@H]2C)cc1 (stereo not given in full) came out in this test?
## Output N

## Input Hi, do you know how CC(C)(CC1(C)NC(=O)NC1=O)OCc1ccccc1 (stereo not given) came out in this test?
## Output N

## Input Hi, do you know how "COc1cc2c(cc1OC)-c1[nH]c3ccc([N+](=O)[O-])cc3c1CC(=O)N2" came out in this test?
## Output N

###

# Tested on: NCI-H460
# assay_explanation: NCI tumour cell line growth inhibition, 48 h
Activity calls are given as the source filed them. Cut-off read from the data, not from the text of the source: active = GI50 up to about 1.1 µM and inactive = higher.
API: response.call in true (active), false (inactive)

CCNc1nc2ccccc2nc1NCC	false

## Input Hi, do you know how "CCCCCCCCCCCCCCCC[N+](C)(C)Cc1ccc(F)cc1" came out in this test?
## Output false

## Input Hi, do you know how O=C(Nc1ccccc1)N(C1=NCC(CI)S1)c1ccc(F)c(F)c1 (configuration not stated) came out in this test?
## Output false

###

# Tested on: IGROV-1
# assay_explanation: NCI tumour cell line growth inhibition, 48 h
Calls of active or inactive are those of the source. Cut-off read from the data, not from the text of the source: active = GI50 up to about 1.1 µM and inactive = higher.
test_readout: GI50

Worked examples, 5 molecules total:
O=C(Nc1cc(Cl)ccc1Cl)c1cc2cccc(Br)c2oc1=O	> 100 µM (inactive)
CCCCCCCCCOC(=S)NC	24.2 µM (inactive)
NC(Cc1cccnn1)C(=O)O (stereo unspecified)	> 100 µM (inactive)
O=c1n(-c2ccccc2)c(=O)n2n1C1C=CC2CCCCCC1	> 100 µM (inactive)
CC(C)OC(=O)c1cc(NC(=S)OC(C)C)ccc1Cl	28.8 µM (inactive)

We next turn to a different molecule, shown below.
## Input Any idea what GI50 was measured for "Cc1ccc(/C=C2\CCC/C(=C\c3ccc(O)c(CN4CCCCC4)c3)C2=O)cc1" ?
## Output 8.02 µM (inactive)

###

# Test system: DMS-273
# assay_explanation: NCI tumour cell line growth inhibition, 48 h
Calls of active or inactive are those of the source. Cut-off read from the data, not from the text of the source: active = GI50 up to about 1.1 µM and inactive = higher.
API: response.call in TRUE (active), FALSE (inactive)

Example results:
CC(=O)NC(CCCCN(Cc1ccccc1)C(=O)N(CCCl)N=O)C(=O)NCc1ccccc1 (stereo unspecified)	FALSE
CC#CCC1CCC(OCC)=CC1=O (stereo unspecified)	FALSE
CN(C)C1=NC2=S(SC(Nc3ccccc3)=N2)S1 (stereo unspecified)	FALSE
O=C1CCCC(O)=C1SC1=C(O)CCCC1=O	FALSE
C#CCn1c(=O)[nH]c(=O)c2cccnc21	FALSE

## Input Hi, do you know how "CCCCCC(=O)OC[n+]1ccc2c(C)c3[nH]c4ccc(OC)cc4c3c(C)c2c1" came out in this test?
## Output TRUE

## Input Hi, do you know how "CCN(CC)CC(=O)NC1c2ccccc2Oc2ccccc21" came out in this test?
## Output FALSE

## Input Hi, do you know how "COc1ccc2c3ccc4c(c3n(C)c2c1)C(=O)C=CC4=O" came out in this test?
## Output FALSE

## Input Hi, do you know how "Cc1cc(Cl)ccc1NC(=O)C(=O)Cc1nc2ccc(C(=O)c3ccccc3)cc2nc1O" came out in this test?
## Output FALSE

## Input Hi, do you know how Cn1c(=O)n(CC2CS2)c2ccccc21 (stereo unspecified) came out in this test?
## Output FALSE

## Input Hi, do you know how "C/C(=N\N(C)C)c1sc(-n2nc(-c3ccccc3)cc2-c2ccccc2)nc1C" came out in this test?
## Output FALSE

###

# System: SNB-19
# assay_explanation: NCI tumour cell line growth inhibition, 48 h
Active and inactive are the calls of the source. Rule as the data show it: active = GI50 up to about 1.1 µM and inactive = higher.
API: response.call in 1 (yes) for active, 0 (no) for inactive

Example results:
CC1=C(\C=C/C(C)=C/C=C/C(C)=C/C=C/C=C(C)\C=C\C=C(C)/C=C/C2=C(C)CCCC2(C)C)C(C)(C)CCC1	0 (no)
O=C(/C=C/c1ccc(Cl)cc1)c1cccs1	0 (no)
O=C(/C=C/c1ccc2c(c1)OCO2)Cc1nc2ncccc2[nH]c1=O	0 (no)
COc1ccc(OC)c2sc(N3C(=O)/C(=C/c4ccc(Cl)cc4)N=C3c3ccccc3)nc12	0 (no)
CC(C)OC(=O)c1cc(NC(=S)OC(C)C)ccc1Cl	0 (no)

## Input Hi, do you know how "CC1=C(C(=O)NNC(=O)C(N)=O)CC(C(=O)NNC(=O)C(N)=O)=C(C)N1" came out in this test?
## Output 0 (no)

## Input Hi, do you know how "O=C(OCc1ccccc1CN1CCOCC1)c1ccc(Br)cc1" came out in this test?
## Output 0 (no)

## Input Hi, do you know how "NS(=O)(=O)c1ccc(/N=N/c2cccnc2O)cc1" came out in this test?
## Output 0 (no)

## Input Hi, do you know how "CC1(n2nc(-c3ccccc3)n(-c3ccccc3)c2=O)CSC1" came out in this test?
## Output 0 (no)

## Input Hi, do you know how CC(=O)Nc1cc(/C=C\C(=O)N2CC(CCl)c3c2cc(N)c2ccccc32)n(C)n1 (stereo not given) came out in this test?
## Output 1 (yes)

###

# Tested on: U-251
# assay_explanation: NCI tumour cell line growth inhibition, 48 h
Activity calls are given as the source filed them. Cut-off read from the data, not from the text of the source: active = GI50 up to about 1.1 µM and inactive = higher.
test_readout: GI50

Worked examples, 5 compounds total:
COC(=O)c1ccc(C)cc1C1CN=NC12Cc1c(C)cccc1C2=O (stereo not given)	42.1 µM (inactive)
COc1ccc([C@H]2CC(=O)C[C@H](c3ccc(OC)cc3OC)C23C(=O)c2ccccc2C3=O)c(OC)c1	> 100 µM (inactive)
c1ccc(C2C3=C(CCCC3)Nc3nc4cc5ccccc5cc4n32)cc1 (stereo not given)	> 100 µM (inactive)
CCCCCCCCCCCC(=O)OC[C@H](C[As](=O)(O)O)OC(=O)CCCCCCCCCCC	2.36 µM (inactive)
Nc1ccc(-c2cssc2=S)cc1	40.7 µM (inactive)

## Input Query GI50 on U-251 for "O=C1C=CC(=O)c2c(O)c(N(CCCl)CCCl)c(Cl)c(O)c21"
## Output 5.73 µM (inactive)

## Input Query GI50 on U-251 for "CC(C)(C)CNCCO"
## Output > 100 µM (inactive)

## Input Query GI50 on U-251 for CCOC(=O)C1C(c2ccc(OC)cc2)c2c(n[nH]c2O)CC1(C)O (stereo not given)
## Output > 100 µM (inactive)

## Input Query GI50 on U-251 for CC1OC2/C=C\CC(O)C(C)(C)C3CCC(C)C4(O3)O[B-]35OC(C(=O)OC1C2)C1(OC(CCC1C)C(C)(C)C(O)C/C=C\C1CC(OC(=O)C4O3)C(C)O1)O5 (stereo not given)
## Output 1.33 µM (inactive)

## Input Query GI50 on U-251 for "Nc1cc(Cl)cc2cc(Cl)cnc12"
## Output > 100 µM (inactive)
